# Test System: KiSS-1 receptor (Homo sapiens)
# Run Description: Human kisspeptin (KISS1R) small molecule agonists, calcium flux assay in KISS1R-HEK293 cells (AID 1920064)
# Measurement Parameters: KISS1R-HEK293, calcium flux fluorescence, agonist; series mostly up to 76.8 µM
Active and inactive are the calls of the source. Calls follow the shape of the dose curve; as a rule, active = well fitted activation curve with a large enough effect in the repeat runs; inconclusive = weak or mixed curves; inactive = flat fitted curve, though single readings scatter.
Reported Metric: activation

Sample answers from the record:
Molecule: C=CCCC
Test System: KiSS-1 receptor (Homo sapiens)
activation: inactive
//
Molecule: CC(C)=O
Test System: KiSS-1 receptor (Homo sapiens)
activation: inactive
//
Molecule: CC(=O)NCCO
Test System: KiSS-1 receptor (Homo sapiens)
activation: inactive
//
Molecule: NC(=O)Nc1ccccc1
Test System: KiSS-1 receptor (Homo sapiens)
activation: inactive
//
Molecule: C=CCCCCCCCC
Test System: KiSS-1 receptor (Homo sapiens)
activation: inactive

Requested field: activation. Item: C[N+](C)(C)CCO
inactive

Requested field: activation. Item: CC(C)N=C(N)/N=C(\N)Nc1ccc(Cl)cc1
inactive

Requested field: activation. Item: OC1(c2ccc(Cl)cc2)CCNCC1
inactive

Requested field: activation. Item: CCCCCCCCCOS(=O)(=O)O
inactive
